target: human mGluR2 receptor (Homo sapiens); construct: expressed in transfected cells; host or cells: CHO cells (membrane preparation); assay: [35S]GTPγS binding assay (GTPγS-PAM): positive allosteric modulation in presence of glutamate at EC25, membranes from transfected CHO cells; format: biochemical; settings: in presence of mGluR2 agonist glutamate at predetermined EC25 concentration, averages of duplicate values of 11-concentration response curves, read-out: GTPgS - hR2 PAM pEC50 (converted)
Sequence (Q14416 19-872): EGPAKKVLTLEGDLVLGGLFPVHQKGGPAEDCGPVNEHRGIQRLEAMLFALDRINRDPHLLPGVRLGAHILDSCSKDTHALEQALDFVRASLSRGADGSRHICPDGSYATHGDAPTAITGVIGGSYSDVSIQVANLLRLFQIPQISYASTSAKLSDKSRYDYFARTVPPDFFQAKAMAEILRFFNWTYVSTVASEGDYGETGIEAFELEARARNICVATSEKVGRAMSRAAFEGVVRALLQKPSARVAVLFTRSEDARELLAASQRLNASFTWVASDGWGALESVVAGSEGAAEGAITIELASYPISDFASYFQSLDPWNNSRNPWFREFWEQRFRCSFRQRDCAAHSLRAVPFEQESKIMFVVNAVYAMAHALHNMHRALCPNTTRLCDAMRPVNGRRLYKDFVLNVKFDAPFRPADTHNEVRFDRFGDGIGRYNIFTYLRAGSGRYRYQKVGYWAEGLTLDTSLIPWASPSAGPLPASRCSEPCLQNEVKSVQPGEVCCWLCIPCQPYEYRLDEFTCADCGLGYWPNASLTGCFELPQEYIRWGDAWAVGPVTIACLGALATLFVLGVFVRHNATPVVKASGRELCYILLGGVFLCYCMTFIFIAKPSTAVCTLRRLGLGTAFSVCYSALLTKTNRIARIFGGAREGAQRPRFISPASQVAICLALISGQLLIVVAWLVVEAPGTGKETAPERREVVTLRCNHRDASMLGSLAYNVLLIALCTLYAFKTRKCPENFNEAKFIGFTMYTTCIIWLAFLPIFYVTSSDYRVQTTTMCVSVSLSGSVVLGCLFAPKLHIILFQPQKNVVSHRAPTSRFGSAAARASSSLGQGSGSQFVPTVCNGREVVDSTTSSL
# key: entry, value: EC50
ASSAY ENDPOINT: EC50 (nM)

chemical_structure=COc1ccc(COc2ccc(-c3ccn(CCC(C)C)c(=O)c3C#N)cc2)cc1 tested_target="human mGluR2 receptor (Homo sapiens)" experimental_value=39.8
chemical_structure=CC(C)CCn1ccc(N2CCN(c3nc4ccccc4o3)CC2)c(C#N)c1=O tested_target="human mGluR2 receptor (Homo sapiens)" experimental_value=1000
chemical_structure=CC(C)CCn1ccc(N2CCCN(c3ccccc3)CC2)c(C#N)c1=O tested_target="human mGluR2 receptor (Homo sapiens)" experimental_value=1000
chemical_structure=CCCCn1ccc(Nc2ccc(Oc3cccnc3)cc2)c(C#N)c1=O tested_target="human mGluR2 receptor (Homo sapiens)" experimental_value=1580
chemical_structure=N#Cc1c(N2CCN(Cc3ccccc3)CC2)ccn(CCOc2ccccc2)c1=O tested_target="human mGluR2 receptor (Homo sapiens)" experimental_value=631
chemical_structure=CCCCn1ccc(N2CCC(COc3ccccn3)CC2)c(C#N)c1=O tested_target="human mGluR2 receptor (Homo sapiens)" experimental_value=501
chemical_structure=CC(C)CCn1ccc(N2CCC(C(F)(F)F)CC2)c(C#N)c1=O tested_target="human mGluR2 receptor (Homo sapiens)" experimental_value=2000
chemical_structure=CCCCn1ccc(N2CCC(c3ccccn3)CC2)c(C#N)c1=O tested_target="human mGluR2 receptor (Homo sapiens)" experimental_value=2000
chemical_structure=COc1ccc(-c2ccn(CCOc3ccccc3)c(=O)c2C#N)cc1 tested_target="human mGluR2 receptor (Homo sapiens)" experimental_value=1000
chemical_structure=N#Cc1c(N2CCN(c3ccccn3)CC2)ccn(Cc2ccc(F)cc2)c1=O tested_target="human mGluR2 receptor (Homo sapiens)" experimental_value=3980
